target: RPS6KA1 KD1 KD2 (human) (UniProt Q15418); test: radiometric filter-binding kinase assay; details: compound 10.0 µM
Sequence (Q15418 whole entry, looked up): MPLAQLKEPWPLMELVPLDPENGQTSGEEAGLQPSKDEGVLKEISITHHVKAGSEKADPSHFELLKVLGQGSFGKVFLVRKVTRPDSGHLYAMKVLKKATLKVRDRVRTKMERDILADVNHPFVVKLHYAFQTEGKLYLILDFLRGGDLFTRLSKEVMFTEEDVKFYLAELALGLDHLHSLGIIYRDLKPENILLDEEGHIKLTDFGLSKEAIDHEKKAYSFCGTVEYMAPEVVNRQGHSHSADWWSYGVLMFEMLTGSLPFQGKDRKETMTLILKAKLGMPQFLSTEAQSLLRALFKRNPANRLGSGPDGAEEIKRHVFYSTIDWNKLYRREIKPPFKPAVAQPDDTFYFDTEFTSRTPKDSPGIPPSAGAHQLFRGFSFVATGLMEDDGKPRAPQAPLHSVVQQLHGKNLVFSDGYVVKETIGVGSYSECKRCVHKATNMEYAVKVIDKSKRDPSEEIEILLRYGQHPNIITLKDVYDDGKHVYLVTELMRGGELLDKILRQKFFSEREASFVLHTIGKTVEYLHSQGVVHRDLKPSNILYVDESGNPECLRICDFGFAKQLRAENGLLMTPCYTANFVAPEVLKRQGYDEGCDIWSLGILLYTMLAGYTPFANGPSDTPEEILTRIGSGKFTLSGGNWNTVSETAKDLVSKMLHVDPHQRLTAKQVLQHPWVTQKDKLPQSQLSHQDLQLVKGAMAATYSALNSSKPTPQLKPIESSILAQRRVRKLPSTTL
Consider the cut-off 70%. If the recorded residual activity is strictly smaller, the label is yes; if not, the label is no.

Determine whether this compound shows residual activity lower than 70% (ties excluded): NC(=O)c1cc(-c2ccnc(NC3CCCCC3)c2)nc(N2CCNCC2)c1
yes

Same for CC(C)(C#N)c1ccc(N2C(=O)OCc3cnc4ccc(-c5cnc6ccccc6c5)cc4c32)cc1
no

Same for CC1=C(CO)C(=O)O[C@@H]([C@@H](C)[C@H]2CC[C@H]3[C@@H]4C[C@H]5O[C@]56[C@@H](O)C=CC(=O)[C@]6(C)C4CC[C@]23C)C1 (some centres undefined)
no

Same for CNc1nc(-c2ccc3c(N)n[nH]c3c2)cc(N2C[C@@H](C(=O)NC3CCCCC3)CC[C@H]2C)n1
yes

Same for Cc1ccc(=O)n(-c2ccccc2)c1
no

Same for NC(=O)c1cc2c(-c3cccc(-c4ccccc4)c3)cnc(N)c2s1
yes

Same for Cc1ccc2c(c1)C(=O)[C@@]1(O)CCN(c3ccccc3)C1=N2
no

Same for O=C1NC(=S)N[C@@H]1Cc1c[nH]c2ccccc12
no

Same for Cc1ccc(-c2ccc3c(ccc4sc5c(c43)NC[C@@H](C)NC5=O)n2)cn1
no
